assay: Cmax in healthy human; type: ADME; details: in vivo
observable: Cmax

Name the recorded Cmax of the compound listed here: Nc1[nH]ncc1-c1cc(Cl)ccc1Oc1cc(F)c(S(=O)(=O)Nc2cscn2)cc1Cl
> 10000 ng/mL

* * *

biological target: Sodium channel protein type 3 subunit alpha (Homo sapiens); experiment: Inhibition of human Nav1.3 expressed in HEK293 cells by electrophysiology assay; assay type: cell-based; details: hek293
Sequence (Q9NY46 whole entry): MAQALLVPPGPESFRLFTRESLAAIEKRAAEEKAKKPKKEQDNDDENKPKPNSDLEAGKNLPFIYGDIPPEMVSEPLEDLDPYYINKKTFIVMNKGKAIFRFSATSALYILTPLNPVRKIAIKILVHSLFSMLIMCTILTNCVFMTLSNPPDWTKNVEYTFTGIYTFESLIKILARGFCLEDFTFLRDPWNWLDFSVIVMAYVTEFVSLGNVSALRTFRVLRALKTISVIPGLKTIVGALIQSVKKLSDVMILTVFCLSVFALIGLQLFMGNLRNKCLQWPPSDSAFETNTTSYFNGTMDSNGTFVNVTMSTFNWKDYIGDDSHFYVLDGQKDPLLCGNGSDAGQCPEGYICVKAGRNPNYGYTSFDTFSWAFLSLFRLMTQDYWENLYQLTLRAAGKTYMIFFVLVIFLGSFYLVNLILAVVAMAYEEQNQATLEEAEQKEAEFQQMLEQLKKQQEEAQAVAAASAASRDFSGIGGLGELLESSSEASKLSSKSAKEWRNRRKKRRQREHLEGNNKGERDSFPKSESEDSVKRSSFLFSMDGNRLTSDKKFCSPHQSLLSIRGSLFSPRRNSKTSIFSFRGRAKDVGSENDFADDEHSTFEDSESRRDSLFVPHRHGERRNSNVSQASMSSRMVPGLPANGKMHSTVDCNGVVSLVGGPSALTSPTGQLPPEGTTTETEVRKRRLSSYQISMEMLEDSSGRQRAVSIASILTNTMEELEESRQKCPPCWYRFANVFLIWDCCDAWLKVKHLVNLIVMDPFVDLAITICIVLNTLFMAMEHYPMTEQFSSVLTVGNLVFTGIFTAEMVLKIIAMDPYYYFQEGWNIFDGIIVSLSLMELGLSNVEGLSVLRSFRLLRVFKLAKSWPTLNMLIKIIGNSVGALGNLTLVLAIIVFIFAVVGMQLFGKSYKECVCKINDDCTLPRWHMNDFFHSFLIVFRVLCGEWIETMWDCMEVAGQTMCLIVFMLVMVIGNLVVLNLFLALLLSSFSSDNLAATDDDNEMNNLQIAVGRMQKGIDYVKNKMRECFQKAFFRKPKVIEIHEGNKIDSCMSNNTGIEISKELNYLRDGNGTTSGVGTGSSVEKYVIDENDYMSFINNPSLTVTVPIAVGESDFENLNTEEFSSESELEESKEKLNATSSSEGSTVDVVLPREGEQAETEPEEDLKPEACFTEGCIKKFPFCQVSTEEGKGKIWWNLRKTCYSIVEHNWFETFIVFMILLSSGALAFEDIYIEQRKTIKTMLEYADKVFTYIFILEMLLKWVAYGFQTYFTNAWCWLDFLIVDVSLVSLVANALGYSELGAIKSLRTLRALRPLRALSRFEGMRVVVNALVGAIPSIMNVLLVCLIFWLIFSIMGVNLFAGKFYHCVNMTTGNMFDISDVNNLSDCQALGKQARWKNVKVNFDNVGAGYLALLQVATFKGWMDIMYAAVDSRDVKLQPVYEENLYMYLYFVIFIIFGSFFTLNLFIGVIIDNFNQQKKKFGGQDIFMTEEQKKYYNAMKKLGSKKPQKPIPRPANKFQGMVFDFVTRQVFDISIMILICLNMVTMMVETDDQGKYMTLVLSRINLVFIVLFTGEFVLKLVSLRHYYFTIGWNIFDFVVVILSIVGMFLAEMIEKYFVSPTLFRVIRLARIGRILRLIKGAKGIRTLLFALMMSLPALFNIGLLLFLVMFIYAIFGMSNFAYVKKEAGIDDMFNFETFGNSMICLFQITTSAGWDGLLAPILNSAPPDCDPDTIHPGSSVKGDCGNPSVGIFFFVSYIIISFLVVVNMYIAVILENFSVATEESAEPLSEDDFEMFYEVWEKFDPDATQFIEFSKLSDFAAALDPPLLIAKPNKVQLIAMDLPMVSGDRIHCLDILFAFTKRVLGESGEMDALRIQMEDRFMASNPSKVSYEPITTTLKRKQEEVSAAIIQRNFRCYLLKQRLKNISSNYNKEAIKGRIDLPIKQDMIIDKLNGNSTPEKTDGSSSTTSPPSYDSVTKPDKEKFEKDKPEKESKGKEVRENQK
observable: IC50

Note down IC50 recorded for COc1cc(-c2cc(F)cc(Cl)c2)c(F)cc1-n1c(=O)ccc2cc(S(=O)(=O)Nc3ccon3)ccc21
> 14 µM

* * *

Below: a set of entries, each annotated with reported pKd.
biological target: Sodium channel protein type 4 subunit alpha (Homo sapiens, UniProt P35499); assay: Binding affinity to human recombinant Nav1.4 by radioligand binding assay
Sequence (P35499 whole entry): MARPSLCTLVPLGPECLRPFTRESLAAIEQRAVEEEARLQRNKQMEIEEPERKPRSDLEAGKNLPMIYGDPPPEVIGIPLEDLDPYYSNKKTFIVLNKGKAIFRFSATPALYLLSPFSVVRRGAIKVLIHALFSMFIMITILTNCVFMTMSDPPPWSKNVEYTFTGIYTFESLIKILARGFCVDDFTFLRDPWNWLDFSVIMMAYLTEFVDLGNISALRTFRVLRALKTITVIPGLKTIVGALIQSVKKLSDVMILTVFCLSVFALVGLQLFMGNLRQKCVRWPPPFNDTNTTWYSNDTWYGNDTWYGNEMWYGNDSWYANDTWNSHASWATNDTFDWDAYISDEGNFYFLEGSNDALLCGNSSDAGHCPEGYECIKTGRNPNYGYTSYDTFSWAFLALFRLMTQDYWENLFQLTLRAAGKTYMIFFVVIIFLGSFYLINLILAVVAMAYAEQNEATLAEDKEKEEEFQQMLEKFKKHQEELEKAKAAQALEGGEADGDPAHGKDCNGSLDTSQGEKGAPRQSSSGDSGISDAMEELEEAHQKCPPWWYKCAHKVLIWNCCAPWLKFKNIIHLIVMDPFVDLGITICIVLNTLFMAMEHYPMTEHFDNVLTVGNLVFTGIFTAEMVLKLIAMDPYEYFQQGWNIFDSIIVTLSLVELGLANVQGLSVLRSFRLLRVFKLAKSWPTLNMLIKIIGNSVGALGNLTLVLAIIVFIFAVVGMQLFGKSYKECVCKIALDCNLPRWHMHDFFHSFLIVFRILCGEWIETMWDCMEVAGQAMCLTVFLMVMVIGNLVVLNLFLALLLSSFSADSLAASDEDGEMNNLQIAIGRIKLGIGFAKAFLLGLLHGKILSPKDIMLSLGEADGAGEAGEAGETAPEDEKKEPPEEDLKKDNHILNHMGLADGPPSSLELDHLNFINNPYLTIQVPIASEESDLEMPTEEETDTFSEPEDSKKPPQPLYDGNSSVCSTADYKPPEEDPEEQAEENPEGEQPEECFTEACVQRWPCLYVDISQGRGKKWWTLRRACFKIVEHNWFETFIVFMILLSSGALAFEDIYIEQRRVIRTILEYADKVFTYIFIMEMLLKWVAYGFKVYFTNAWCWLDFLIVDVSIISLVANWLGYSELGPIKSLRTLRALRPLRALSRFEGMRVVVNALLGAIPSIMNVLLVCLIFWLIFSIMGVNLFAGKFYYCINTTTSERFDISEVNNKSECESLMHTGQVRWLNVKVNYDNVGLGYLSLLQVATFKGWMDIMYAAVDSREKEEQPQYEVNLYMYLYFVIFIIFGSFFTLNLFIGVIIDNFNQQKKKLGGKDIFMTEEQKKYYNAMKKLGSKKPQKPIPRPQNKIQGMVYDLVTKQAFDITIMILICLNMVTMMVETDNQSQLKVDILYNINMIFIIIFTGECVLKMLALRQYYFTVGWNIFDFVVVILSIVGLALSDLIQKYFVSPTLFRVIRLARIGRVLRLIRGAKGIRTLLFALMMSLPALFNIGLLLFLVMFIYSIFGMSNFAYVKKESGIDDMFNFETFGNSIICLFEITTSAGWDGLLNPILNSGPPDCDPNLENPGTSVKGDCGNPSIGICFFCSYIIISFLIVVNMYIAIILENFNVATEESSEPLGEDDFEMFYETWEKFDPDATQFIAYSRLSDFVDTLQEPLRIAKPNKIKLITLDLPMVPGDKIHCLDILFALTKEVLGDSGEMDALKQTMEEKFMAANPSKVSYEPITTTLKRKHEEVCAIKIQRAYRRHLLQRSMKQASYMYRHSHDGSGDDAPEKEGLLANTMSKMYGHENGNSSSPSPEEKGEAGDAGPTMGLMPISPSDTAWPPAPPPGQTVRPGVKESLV
In plain terms, pKd is the concentration in mol/L turned into minus its base-10 logarithm.

{"columns": ["smiles_representation", "pKd"],
 "data": [
  ["Cc1nn([C@@H]2CCN([C@H](C)c3cc(Cl)cc(Cl)c3)C2)c2cc(F)c(C(=O)NS(=O)(=O)C3CC3)cc12", 7.33]
]}

Okay, now this compound:
Kindly indicate its recorded pKd. Item: CS(=O)(=O)NC(=O)c1cc(C2CC2)c(OCC2CCN(Cc3cc(C(F)(F)F)ccc3Cl)CC2)cc1F
7.55
